Test system: KOPN-8
METHOD: selective drug sensitivity score (sDSS, relative to normal bone marrow) (sDSS (score)); higher = more potent and effective on the cell line relative to normal bone marrow cells;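 also: ALL cell lines in 384-well plates, five doses spanning 10,000-fold, each plate scaled between vehicle and 100 µmol/L benzalkonium chloride controls, sDSS an adapted area-under-curve metric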
CONDITION PARAMETERS: 72 h
REPORTED METRIC: selective drug sensitivity score

COMPOUND | STUDY TARGET | QUANTITATIVE READOUT
CCN(CC)CCNC(=O)c1c(C)[nH]c(/C=C2\C(=O)Nc3ccc(-c4csc(-c5ccccc5)n4)cc32)c1C [Amcasertib] (top concentration 10000 nM) | KOPN-8 | -1.1
COc1cc(Nc2c(C#N)cnc3cc(OCCCN4CCN(C)CC4)c(OC)cc23)c(Cl)cc1Cl [Bosutinib] (top concentration 10000 nM) | KOPN-8 | 4.56
CN1CCN(C2CCN(C(=O)Nc3cc(Oc4ccc(NC(=O)C5(C(=O)Nc6ccc(F)cc6)CC5)c(F)c4)ccn3)CC2)CC1 [Golvatinib] (top concentration 2500 nM) | KOPN-8 | -0.14

###

Test system: MHH-CALL-2
METHOD: selective drug sensitivity score (sDSS, relative to normal bone marrow) (sDSS (score)); higher = more potent and effective on the cell line relative to normal bone marrow cells
CONDITION PARAMETERS: 72 h
Reported selective drug sensitivity score is given for each of the following molecules.
REPORTED METRIC: selective drug sensitivity score

MOLECULE | STUDY TARGET | REPORTED METRIC | QUANTITATIVE READOUT
COc1ccc(COc2cc3oc(=O)c4cc(C(C)O)ccc4c3cc2OC)cc1 (stereo unspecified) [Palomid-529] (top concentration 10000 nM) | MHH-CALL-2 | selective drug sensitivity score | 1.06
C=CC(=O)Nc1cccc(Nc2nc(Nc3ccc(N4CCN(C(C)=O)CC4)cc3OC)ncc2C(F)(F)F)c1 [Rociletinib] (top concentration 10000 nM) | MHH-CALL-2 | selective drug sensitivity score | 1.94
NC(=O)/C(=C/n1cnc(-c2cc(C(F)(F)F)cc(C(F)(F)F)c2)n1)c1cncnc1 [Eltanexor] (top concentration 10000 nM) | MHH-CALL-2 | selective drug sensitivity score | 11.4
COc1cc([C@@H]2c3cc4c(cc3[C@@H](O[C@@H]3O[C@@H]5CO[C@@H](C)O[C@H]5[C@H](O)[C@H]3O)[C@H]3COC(=O)[C@H]23)OCO4)cc(OC)c1O [Etoposide] (top concentration 10000 nM) | MHH-CALL-2 | selective drug sensitivity score | 13.2
Cn1cnc2c(F)c(Nc3ccc(Br)cc3Cl)c(C(=O)NOCCO)cc21 [Selumetinib] (top concentration 10000 nM) | MHH-CALL-2 | selective drug sensitivity score | 8.5
C[C@@H](Nc1cc(F)cc(F)c1)c1cc(C(=O)N(C)C)cc2c(=O)cc(N3CCOCC3)oc12 [AZD-8186] (top concentration 1000 nM) | MHH-CALL-2 | selective drug sensitivity score | 4.64

###

Tested on: NALM-6
METHOD: selective drug sensitivity score (sDSS, relative to normal bone marrow) (sDSS (score)); higher = more potent and effective on the cell line relative to normal bone marrow cells
CONDITION PARAMETERS: 72 h
Returns one of condition met or condition not met; condition met when selective drug sensitivity score is >= -0.06.

MOLECULE | CLASS ASSIGNMENT
CC(C)(C)Cn1c(N)nc2ccc(-c3[nH]c(C(C)(C)C)nc3-c3ccc(F)cc3)nc21 [Ralimetinib] (top concentration 10000 nM) | condition not met
C[C@]1(O)C[C@@H](c2nc(-c3ccc4ccc(-c5ccccc5)nc4c3)c3c(N)nccn32)C1 [Linsitinib] (top concentration 10000 nM) | condition not met
CCNC(=O)C[C@@H]1N=C(c2ccc(Cl)cc2)c2cc(OC)ccc2-n2c(C)nnc21 [Molibresib] (top concentration 10000 nM) | condition met
Cc1nc2cccc(N)c2c(=O)n1C1CCC(=O)NC1=O (stereo unspecified) [Avadomide (CC122)] (top concentration 10000 nM) | condition met
Cc1cc2c(F)c(Oc3ncnn4cc(OC[C@@H](C)O)c(C)c34)ccc2[nH]1 [Brivanib] (top concentration 1000 nM) | condition met
